test target: Metabotropic glutamate receptor 2 (Rattus norvegicus, UniProt P31421)
Sequence (P31421 whole entry): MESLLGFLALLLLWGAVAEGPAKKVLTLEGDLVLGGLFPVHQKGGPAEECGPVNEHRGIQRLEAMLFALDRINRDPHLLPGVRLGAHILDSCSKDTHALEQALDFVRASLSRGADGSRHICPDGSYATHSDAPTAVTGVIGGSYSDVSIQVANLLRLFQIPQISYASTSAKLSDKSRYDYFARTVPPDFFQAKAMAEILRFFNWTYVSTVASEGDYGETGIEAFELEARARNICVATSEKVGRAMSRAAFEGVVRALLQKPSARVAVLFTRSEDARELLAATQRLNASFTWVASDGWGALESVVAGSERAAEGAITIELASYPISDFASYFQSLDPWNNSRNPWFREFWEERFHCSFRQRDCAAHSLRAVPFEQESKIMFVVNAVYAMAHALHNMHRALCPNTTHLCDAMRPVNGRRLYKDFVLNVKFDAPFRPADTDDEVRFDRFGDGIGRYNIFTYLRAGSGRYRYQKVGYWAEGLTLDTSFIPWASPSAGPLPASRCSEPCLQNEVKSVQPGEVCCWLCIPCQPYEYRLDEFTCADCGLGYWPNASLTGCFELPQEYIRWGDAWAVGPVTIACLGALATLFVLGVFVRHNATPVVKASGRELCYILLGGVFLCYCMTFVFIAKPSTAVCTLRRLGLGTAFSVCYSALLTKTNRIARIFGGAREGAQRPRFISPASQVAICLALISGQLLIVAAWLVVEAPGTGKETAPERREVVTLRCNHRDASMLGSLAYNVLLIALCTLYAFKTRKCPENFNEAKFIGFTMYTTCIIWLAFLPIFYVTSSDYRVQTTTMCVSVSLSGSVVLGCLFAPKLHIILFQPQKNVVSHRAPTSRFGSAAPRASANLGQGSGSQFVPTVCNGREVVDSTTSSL
assay text: Positive allosteric modulation of rat mGlu2 receptor assessed as potentiation of glutamate-induced effect by Fluo-4AM staining-based FLIPR assay
quantity: EC50 (nM)
Numbers only here, please. The scale is nM.

Retrieve EC50 measured for `Cn1c(=O)n(CC(C)(C)C)c2ccc(N3C[C@@H]4CC[C@H]3CN4C(=O)c3ccon3)nc21` and print it.
75

---

assay text: Half life in Wistar Hannover rat at 2 mg/kg, iv administered as single dose
Assay type: ADME, organism-based
run parameters: in vivo
The reader will find reported half-life values listed item by item below.
Numbers only here, please. The scale is h.

>>> reported_result("Cn1c(=O)n(CC(C)(C)C)c2ccc(N3CC4CCC3CN4C(=O)c3ccccc3)nc21 (racemic)")
1.2
>>> reported_result("Cn1c(=O)n(CC(C)(C)C)c2ccc(N3CC4CCC3CN4C(=O)c3cccnc3)nc21 (racemic)")
0.5

Retrieve half-life measured for `Cn1c(=O)n(CC(C)(C)C)c2ccc(C3=C[C@@H]4CC[C@H]3CN4C(=O)c3ccon3)nc21` and print it.
10

Retrieve half-life measured for `Cn1c(=O)n(CC(C)(C)C)c2ccc(N3C[C@@H]4CC[C@H]3CN4C(=O)c3ccon3)nc21` and print it.
2.3

---

Test system: Cerebrospinal fluid
assay text: Drug uptake in Sprague-Dawley rat cerebrospinal fluid at 30 mg/kg, po
Type: ADME, organism-based
run parameters: in vivo, read-out: Drug uptake
quantity: concentration (nM)
Numbers only here, please. The scale is nM.

Fill in concentration for `Cn1c(=O)n(CC(C)(C)C)c2ccc(C3=C[C@@H]4CC[C@H]3CN4C(=O)c3ccon3)nc21` tested with Cerebrospinal fluid.
61

---

assay text: AUC in Wistar Hannover rat at 10 mg/kg, po administered as single dose
Format: ADME, organism-based
run parameters: Wistar Hannover, in vivo
quantity: AUC

Some compounds with recorded AUC:
>>> reported_result("Cn1c(=O)n(CC(C)(C)C)c2ccc(N3C[C@@H]4CC[C@H]3CN4C(=O)c3ccon3)nc21")
"14 µM·h"
>>> reported_result("Cc1cc(CN2CC3CCC2CN3c2ccc3c(n2)n(C)c(=O)n3CC(C)(C)C)no1 (racemic)")
"2 µM·h"
>>> reported_result("Cn1c(=O)n(CC(C)(C)C)c2ccc(N3CC4CCC3CN4C(=O)c3ccccc3)nc21 (racemic)")
"2 µM·h"
>>> reported_result("Cn1c(=O)n(CC(C)(C)C)c2ccc(N3CC4CCC3CN4c3ncccn3)nc21 (racemic)")
"3.9 µM·h"

Field: next compound
Retrieve AUC measured for `Cn1c(=O)n(CC(C)(C)C)c2ccc(N3C[C@@H]4CC[C@H]3CN4C(=O)c3csnn3)nc21` and print it.
13 µM·h

---

test target: Metabotropic glutamate receptor 2 (Homo sapiens, UniProt Q14416)
Sequence (Q14416 whole entry): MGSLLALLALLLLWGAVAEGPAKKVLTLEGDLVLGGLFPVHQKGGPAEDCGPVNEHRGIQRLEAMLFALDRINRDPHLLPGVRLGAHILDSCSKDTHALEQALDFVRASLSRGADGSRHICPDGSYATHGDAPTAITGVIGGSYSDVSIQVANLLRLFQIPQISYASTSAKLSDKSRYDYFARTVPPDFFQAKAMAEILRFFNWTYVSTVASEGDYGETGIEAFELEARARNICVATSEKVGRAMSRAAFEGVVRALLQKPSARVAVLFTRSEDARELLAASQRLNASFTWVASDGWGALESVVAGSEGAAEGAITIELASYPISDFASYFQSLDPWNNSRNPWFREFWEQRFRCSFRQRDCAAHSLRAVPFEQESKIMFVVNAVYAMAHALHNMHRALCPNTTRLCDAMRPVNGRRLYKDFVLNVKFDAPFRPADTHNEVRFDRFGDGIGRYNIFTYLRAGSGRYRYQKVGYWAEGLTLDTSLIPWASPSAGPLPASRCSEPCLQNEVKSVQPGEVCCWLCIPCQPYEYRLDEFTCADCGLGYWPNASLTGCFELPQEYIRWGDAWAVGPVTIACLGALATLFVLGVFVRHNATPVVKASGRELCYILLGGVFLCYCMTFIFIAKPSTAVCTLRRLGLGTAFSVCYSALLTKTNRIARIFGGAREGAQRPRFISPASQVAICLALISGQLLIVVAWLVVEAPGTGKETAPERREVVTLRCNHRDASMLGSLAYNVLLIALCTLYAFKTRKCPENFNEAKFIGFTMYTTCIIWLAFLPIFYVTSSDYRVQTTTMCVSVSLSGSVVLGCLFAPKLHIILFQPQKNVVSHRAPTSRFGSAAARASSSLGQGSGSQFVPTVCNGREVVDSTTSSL
assay text: Positive allosteric modulation of recombinant human mGlu2 receptor expressed in CHO cells assessed as potentiation of glutamate-induced effect preincubated for 5 mins followed by glutamate stimulation for 3 mins by Fluo-4AM staining-based FLIPR assay
Type: cell-based
The reader will find reported pEC50 values listed item by item below.
Quick note: pEC50 values are minus log10 of concentrations in mol/L.

Fill in pEC50 for `Cn1c(=O)n(CC(C)(C)C)c2ccc(N3CCCc4ccccc43)nc21` tested with Metabotropic glutamate receptor 2 (Homo sapiens, UniProt Q14416).
6.48

Fill in pEC50 for `Cn1c(=O)n(CC(C)(C)C)c2ccc(N3CCCCC3)nc21` tested with Metabotropic glutamate receptor 2 (Homo sapiens, UniProt Q14416).
6.37

Fill in pEC50 for Cn1c(=O)n(CC(C)(C)C)c2ccc(N3CC4CCC3CN4)nc21 (racemic) tested with Metabotropic glutamate receptor 2 (Homo sapiens, UniProt Q14416).
5.89

Fill in pEC50 for Cn1c(=O)n(CC(C)(C)C)c2ccc(N3CC4CCC3CN4c3ncccn3)nc21 (racemic) tested with Metabotropic glutamate receptor 2 (Homo sapiens, UniProt Q14416).
7.43
